System name: hG6PD (Homo sapiens, UniProt P11413)
Construct: made in house
Sequence (P11413 whole entry): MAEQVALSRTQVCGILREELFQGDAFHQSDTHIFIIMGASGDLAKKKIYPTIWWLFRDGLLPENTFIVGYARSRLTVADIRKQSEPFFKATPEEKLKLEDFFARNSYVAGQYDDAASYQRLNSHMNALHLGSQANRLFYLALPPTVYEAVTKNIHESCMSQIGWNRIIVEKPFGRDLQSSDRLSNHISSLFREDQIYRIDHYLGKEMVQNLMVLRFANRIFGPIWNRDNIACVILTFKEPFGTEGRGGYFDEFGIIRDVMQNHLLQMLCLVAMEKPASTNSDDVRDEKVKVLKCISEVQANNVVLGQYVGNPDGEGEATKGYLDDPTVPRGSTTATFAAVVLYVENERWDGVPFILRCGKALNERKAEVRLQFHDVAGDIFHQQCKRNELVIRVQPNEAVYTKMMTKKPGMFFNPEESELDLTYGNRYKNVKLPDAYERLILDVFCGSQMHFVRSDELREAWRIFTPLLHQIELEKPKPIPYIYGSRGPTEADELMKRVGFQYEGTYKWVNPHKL
Procedure summary: hG6PD enzyme inhibition assay
Assay type: biochemical
Run parameters: mean ± SD; only one enzyme batch; read-out: IC50 on hG6PD
Observed property: pIC50
Remember, pIC50 is on a log scale: it is -log10 of the molar concentration.

## Input Test system hG6PD (Homo sapiens, UniProt P11413); read-out pIC50; what value for N#CC(Br)c1ncccn1 (centres unmarked) ?
## Output 4.04

## Input What is its pIC50 for hG6PD (Homo sapiens, UniProt P11413)? Entry: N#CC(Br)c1ncccc1Cl (centres unmarked)
## Output 4.46
